molecular target: mTOR/GbL/Raptor (mTORC1) (Homo sapiens); assay: mTOR/GbL/Raptor (mTORC1) ELISA Assay; type: biochemical; conditions: 4EBP1 used as substrate for mTOR/GbL/raptor kinase; read-out: PI3K biochemical IC50 values mTOR
quantity: IC50 (nM)

compound	result-units	IC50
Cc1nc2cc(-c3ccc4c(c3)CN(c3nc(CN(C)C)nc(C)c3C(C)C)CCO4)cnc2[nH]1 [Compound 694]	nM	16
CCNc1nc2ccc(-c3ccc4c(c3)CN(c3ncnc(NCC)c3C)CCO4)cc2[nH]1 [Compound 699]	nM	252

A = Cc1nc2ncc(-c3ccc4c(c3)CN(c3nc(CN(C)C)nc5c3CC(C)(C)CC5)CCO4)cc2[nH]1 [Compound 693]
B = COc1ccc2c(N3CCOc4ccc(-c5cnc6nc(C)[nH]c6c5)cc4C3)nc(CN(C)C)nc2c1 [Compound 696]
C = CCNc1nc2ccc(-c3ccc4c(c3)CN(c3ccnc5cc(F)ccc35)CCO4)cc2[nH]1 [Compound 698]
Please produce an ascending ranking of these compounds based on IC50. # answer = labels listed in requested order
A, C, B
(A: 6 nM, C: 120 nM, B: 381 nM)

* * *

molecular target: PI3Kδ (Homo sapiens); experiment: PI3K Biochemical Assay; conditions: PIP2 used as substrate; read-out: PI3K biochemical IC50 values P13Kδ
Sequence (O00329 whole entry, one chain of several): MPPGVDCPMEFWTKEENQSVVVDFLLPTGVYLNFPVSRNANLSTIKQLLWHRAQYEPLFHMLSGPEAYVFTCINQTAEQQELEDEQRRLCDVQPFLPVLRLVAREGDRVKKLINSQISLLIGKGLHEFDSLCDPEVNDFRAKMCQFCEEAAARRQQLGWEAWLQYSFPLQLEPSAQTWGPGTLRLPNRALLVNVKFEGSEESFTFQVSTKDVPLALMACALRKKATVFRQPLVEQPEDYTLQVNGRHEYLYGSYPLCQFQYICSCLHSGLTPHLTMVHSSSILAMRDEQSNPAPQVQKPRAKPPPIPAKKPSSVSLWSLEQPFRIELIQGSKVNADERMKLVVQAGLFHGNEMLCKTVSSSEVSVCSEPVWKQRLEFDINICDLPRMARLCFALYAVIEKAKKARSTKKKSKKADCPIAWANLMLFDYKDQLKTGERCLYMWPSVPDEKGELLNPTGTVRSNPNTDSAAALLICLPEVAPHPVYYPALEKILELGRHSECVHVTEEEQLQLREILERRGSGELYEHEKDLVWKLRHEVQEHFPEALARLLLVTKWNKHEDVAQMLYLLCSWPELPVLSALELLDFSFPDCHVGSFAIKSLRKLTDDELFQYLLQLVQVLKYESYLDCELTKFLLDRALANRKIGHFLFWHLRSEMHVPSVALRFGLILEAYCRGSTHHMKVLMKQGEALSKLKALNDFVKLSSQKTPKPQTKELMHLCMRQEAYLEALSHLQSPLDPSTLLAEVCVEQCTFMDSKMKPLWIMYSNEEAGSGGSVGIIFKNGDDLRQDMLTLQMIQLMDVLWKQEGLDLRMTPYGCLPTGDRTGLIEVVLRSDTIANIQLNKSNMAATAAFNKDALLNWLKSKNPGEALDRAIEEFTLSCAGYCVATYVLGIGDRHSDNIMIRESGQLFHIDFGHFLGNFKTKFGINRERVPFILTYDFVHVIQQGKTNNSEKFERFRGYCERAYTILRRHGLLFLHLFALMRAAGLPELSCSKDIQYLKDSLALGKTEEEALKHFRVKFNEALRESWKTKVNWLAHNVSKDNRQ
quantity: IC50 (µM)

mol	result-units	IC50
CCNc1nc2ccc(-c3ccc4c(c3)CN(c3ncnc(NCC)c3C)CCO4)cc2[nH]1	µM	0.44
Cc1nc2ncc(-c3ccc4c(c3)CN(c3nc(CN(C)C)nc5c3CC(C)(C)CC5)CCO4)cc2[nH]1	µM	0.575

* * *

test system: pAKT (T308) in MDA-MB-453 cells (PI3Kα H1047R); assay: pAKT (T308) ELISA Assay; type: cell-based; conditions: Homo sapiens, heregulin stimulation, read-out: Cellular pAKT (T308) IC50 PI3KαH1047R MDA-MB-453 hereg
quantity: IC50 (nM)

compound	test-system	data-value
COc1ccc2c(N3CCOc4ccc(-c5cnc6nc(C)[nH]c6c5)cc4C3)nc(CN(C)C)nc2c1 [Compound 696]	pAKT (T308) in MDA-MB-453 cells (PI3Kα H1047R)	117
CCNc1nc2ccc(-c3ccc4c(c3)CN(c3ccnc5cc(F)ccc35)CCO4)cc2[nH]1 [Compound 698]	pAKT (T308) in MDA-MB-453 cells (PI3Kα H1047R)	118

I = Cc1nc2ncc(-c3ccc4c(c3)CN(c3nc(CN(C)C)nc5c3CC(C)(C)CC5)CCO4)cc2[nH]1 [Compound 693]
II = CCNc1nc2ccc(-c3ccc4c(c3)CN(c3ncnc(NCC)c3C)CCO4)cc2[nH]1 [Compound 699]
III = Cc1nc2cc(-c3ccc4c(c3)CN(c3nc(CN(C)C)nc(C)c3C(C)C)CCO4)cnc2[nH]1 [Compound 694]
Place the items in sequence of falling IC50. # answer = labels listed in requested order
II, I, III
(II: 639 nM, I: 40 nM, III: 18 nM)

* * *

Target: PI3Kα (Homo sapiens)
Sequence (P42336 whole entry): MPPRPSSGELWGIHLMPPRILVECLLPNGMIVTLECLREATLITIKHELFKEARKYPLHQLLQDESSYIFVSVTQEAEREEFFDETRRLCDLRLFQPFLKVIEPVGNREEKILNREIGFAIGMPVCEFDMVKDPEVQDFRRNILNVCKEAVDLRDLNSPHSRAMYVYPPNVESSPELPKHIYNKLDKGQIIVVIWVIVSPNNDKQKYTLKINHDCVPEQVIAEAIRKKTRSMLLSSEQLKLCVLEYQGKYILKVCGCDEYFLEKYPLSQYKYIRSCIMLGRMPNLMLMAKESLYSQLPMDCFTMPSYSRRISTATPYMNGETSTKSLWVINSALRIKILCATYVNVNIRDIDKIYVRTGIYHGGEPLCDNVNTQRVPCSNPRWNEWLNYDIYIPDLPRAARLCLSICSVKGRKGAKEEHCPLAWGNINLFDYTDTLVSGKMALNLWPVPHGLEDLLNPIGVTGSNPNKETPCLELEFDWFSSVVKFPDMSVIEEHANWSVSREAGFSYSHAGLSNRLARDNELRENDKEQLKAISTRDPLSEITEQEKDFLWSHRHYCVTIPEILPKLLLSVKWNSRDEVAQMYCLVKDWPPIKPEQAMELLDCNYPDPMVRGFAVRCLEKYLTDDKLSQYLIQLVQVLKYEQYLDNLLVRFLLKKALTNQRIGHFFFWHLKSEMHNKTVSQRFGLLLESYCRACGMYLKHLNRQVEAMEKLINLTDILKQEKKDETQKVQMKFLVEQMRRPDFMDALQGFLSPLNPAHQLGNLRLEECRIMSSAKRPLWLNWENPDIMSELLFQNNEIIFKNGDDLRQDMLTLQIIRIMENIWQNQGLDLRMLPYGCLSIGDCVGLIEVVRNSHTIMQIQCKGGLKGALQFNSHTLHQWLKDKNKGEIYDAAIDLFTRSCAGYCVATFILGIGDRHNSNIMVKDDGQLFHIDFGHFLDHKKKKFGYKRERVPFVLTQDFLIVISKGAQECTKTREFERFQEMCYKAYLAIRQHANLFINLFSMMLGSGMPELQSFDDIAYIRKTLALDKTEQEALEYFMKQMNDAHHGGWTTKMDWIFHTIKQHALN
Sequence (P27986 whole entry partner): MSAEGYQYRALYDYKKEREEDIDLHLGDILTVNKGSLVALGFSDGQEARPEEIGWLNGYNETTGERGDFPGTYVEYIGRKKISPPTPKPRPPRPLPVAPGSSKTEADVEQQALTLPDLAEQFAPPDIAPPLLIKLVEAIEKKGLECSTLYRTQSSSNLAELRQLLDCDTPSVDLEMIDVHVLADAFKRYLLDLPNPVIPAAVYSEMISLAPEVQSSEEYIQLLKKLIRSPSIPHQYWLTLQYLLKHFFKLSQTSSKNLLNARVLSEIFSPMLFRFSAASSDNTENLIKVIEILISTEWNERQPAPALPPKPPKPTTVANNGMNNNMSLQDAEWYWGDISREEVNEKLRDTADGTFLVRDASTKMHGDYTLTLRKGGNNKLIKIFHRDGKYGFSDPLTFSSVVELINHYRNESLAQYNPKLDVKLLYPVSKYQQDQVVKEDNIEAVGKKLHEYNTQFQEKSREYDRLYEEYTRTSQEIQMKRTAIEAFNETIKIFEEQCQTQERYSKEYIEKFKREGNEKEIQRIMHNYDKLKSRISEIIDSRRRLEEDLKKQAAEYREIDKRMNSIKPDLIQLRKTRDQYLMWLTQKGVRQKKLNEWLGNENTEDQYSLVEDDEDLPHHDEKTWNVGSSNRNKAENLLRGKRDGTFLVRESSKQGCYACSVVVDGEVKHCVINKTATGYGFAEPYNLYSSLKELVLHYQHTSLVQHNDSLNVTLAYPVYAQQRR
Test: PI3K Biochemical Assay (ATP consumed, luciferase-luciferin chemiluminescence)
Details: PIP2 used as substrate; read-out: PI3K biochemical IC50 values PI3Kα
Procedure: PI3Kα activity is measured as the percent of ATP consumed following the kinase reaction using luciferase-luciferin-coupled chemiluminescence. Reactions were conducted in 384-well white, medium binding microtiter plates (Greiner). […] Following the kinase reaction, a 10 μL aliquot of luciferase-luciferin mix (Promega Kinase-Glo) was added and the chemiluminescence signal measured using a Victor2 plate reader (Perkin Elmer). […]
quantity: IC50 (nM)

Sample records with IC50:
mol	test-system	result-units	data-value
COc1ccc2c(N3CCOc4ccc(-c5cnc6nc(C)[nH]c6c5)cc4C3)nc(CN(C)C)nc2c1	PI3Kα (Homo sapiens)	nM	3
Cc1nc2cc(-c3ccc4c(c3)CN(c3nc(CN(C)C)nc(C)c3C(C)C)CCO4)cnc2[nH]1	PI3Kα (Homo sapiens)	nM	4

A = Cc1nc2ncc(-c3ccc4c(c3)CN(c3nc(CN(C)C)nc5c3CC(C)(C)CC5)CCO4)cc2[nH]1
B = CCNc1nc2ccc(-c3ccc4c(c3)CN(c3ccnc5cc(F)ccc35)CCO4)cc2[nH]1
C = CCNc1nc2ccc(-c3ccc4c(c3)CN(c3ncnc(NCC)c3C)CCO4)cc2[nH]1
Place the items in sequence of falling IC50. # answer = labels listed in requested order
C, B, A
(C: 6 nM, B: 3 nM, A: 2 nM)
